Reported IC50 values for a set of compounds
molecular target: MST1 (Homo sapiens); experiment: In vitro measurement of MST1 inhibition (Z′-Lyte kinase assay); assay type: biochemical; conditions: 1 μM ATP; read-out: IC50 (μM) 1 μM ATP
Sequence (Q13043 whole entry): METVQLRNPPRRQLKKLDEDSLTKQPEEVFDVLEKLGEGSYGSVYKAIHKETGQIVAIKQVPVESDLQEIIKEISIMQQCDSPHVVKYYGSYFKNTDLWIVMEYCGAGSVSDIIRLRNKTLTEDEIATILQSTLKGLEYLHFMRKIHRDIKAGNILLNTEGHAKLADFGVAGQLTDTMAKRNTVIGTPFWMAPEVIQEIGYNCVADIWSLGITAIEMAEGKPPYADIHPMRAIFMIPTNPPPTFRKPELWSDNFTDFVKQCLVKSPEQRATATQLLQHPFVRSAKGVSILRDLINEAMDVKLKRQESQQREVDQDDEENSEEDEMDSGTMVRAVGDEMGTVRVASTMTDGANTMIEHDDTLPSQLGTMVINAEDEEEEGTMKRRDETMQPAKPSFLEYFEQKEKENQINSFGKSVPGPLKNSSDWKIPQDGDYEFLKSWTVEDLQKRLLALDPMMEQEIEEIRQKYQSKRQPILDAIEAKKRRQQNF

Consider the reported IC50 for these compounds:
>>> result("CN1Cc2cc(-c3nc(-c4ccc(S(=O)(=O)N(C)C5CC5)cc4)cnc3N)ccc2C(=O)N1")
"< 0.05 µM"
>>> result("CCN(C)S(=O)(=O)c1ccc(-c2cnc(N)c(-c3ccc4c(c3)CCNC4=O)c2)cc1")
"< 0.01 µM"
>>> result("CC(C)(c1ccc(-c2cnc(N)c(-c3ccc4c(c3)CCNC4=O)c2)cc1)N1CCOCC1")
"< 0.05 µM"
>>> result("CN(C1CC1)S(=O)(=O)c1ccc(-c2cnc(N)c(-c3ccc4c(c3)OC[C@@H](COCc3ccccc3)NC4=O)c2)cc1")
"< 0.15 µM"
>>> result("Nc1ncc(-c2ccc3c(c2)CNS3(=O)=O)cc1-c1ccc2c(c1)CCNC2=O")
"< 0.05 µM"
>>> result("CCCN(C)S(=O)(=O)c1ccc(-c2cnc(N)c(-c3ccc4c(c3)CCNC4=O)n2)cc1")
"< 0.01 µM"

// assay MST1 (Homo sapiens), entry N#CC1CC1c1ccc(-c2cnc(N)c(-c3ccc4c(c3)CCNC4=O)n2)cc1 (stereo not drawn) , IC50 value = < 0.05 µM

// assay MST1 (Homo sapiens), entry `CCN(C1CC1)S(=O)(=O)c1ccc(-c2cnc(N)c(-c3ccc4c(c3)CCNC4=O)n2)cc1` , IC50 value = < 0.05 µM

Entry `CC(C)(C)OC(=O)N1CC=C(c2cnc(N)c(-c3ccc4c(c3)CCNC4=O)c2)CC1` , MST1 (Homo sapiens) data, IC50 value: < 0.15 µM

Tested on MST1 (Homo sapiens): CC1(C#N)CCc2cc(-c3cnc(N)c(-c4ccc5c(c4)CCNC5=O)c3)ccc21 (stereo not drawn) . Observed IC50: < 0.15 µM

I looked up `[2H]C1([2H])CNC(=O)c2ccc(-c3nc(-c4ccc(S(=O)(=O)N(C)C5CC5)cc4)cnc3N)cc21` and its IC50 for MST1 (Homo sapiens) was < 0.01 µM

Tested system MST1 (Homo sapiens); IC50 recorded for `CCNS(=O)(=O)c1ccc(-c2cnc(N)c(-c3ccc(C(N)=O)cn3)c2)cc1` was < 0.05 µM
